System: MS2 coat protein
Test: apparent KD of MS2 coat protein; designed switch direction (-1 OFF switch, 1 ON switch): -1; higher = weaker reporter binding
Conditions: input ligand: FMN 200 uM
Please mark 1 (yes) if the recorded apparent KD of MS2 coat protein is equal to or greater than 60 nM, and 0 (no) if it falls below.

Check out these entries, answers already filled in.
Check this sequence for apparent KD of MS2 coat protein at or above 60 nM: UCCUCACAUGAGGAUCACCCAUGUGAGGAUAUGGGCCCGGGCCCGAAAGGGCCCGGGCCCAGAAGGCACUGGGU [MoB_2] (Eterna round: R97, puzzle: Exclusion 1)
0 (no)

Check this sequence for apparent KD of MS2 coat protein at or above 60 nM: GGAGAGAGGCAGGAUAUGGGAGGGAGGACCGGACCAGAAGGGUUGACAUGAGGAUCACCCAUGUAGAGAUCCUC [AK-MS2ROC-r4-exclusion6-6.8] (Eterna round: R97, puzzle: Exclusion 6)
1 (yes)

Check this sequence for apparent KD of MS2 coat protein at or above 60 nM: GUUUUCAGACGGAGAUCCUACAUGAGGAUCACCCAUGUCUCUCUUGCUAAUUGCUCGUCUUAUUCUCCUCUGUUCUC [Elimod 37 - Jieux - Sensor, turn-off variant 1] (Eterna round: R97, puzzle: Sensor, turn-off variant 1)
1 (yes)

Check this sequence for apparent KD of MS2 coat protein at or above 60 nM: UAUUAACAAGCGAGAUCCCACAUGAGGAUCACCCAUGUGCUCGUCUUAUAAGGUACUGUGACGAAAGUCACGGUACC [Sensor 3, v1 - 91 v2] (Eterna round: R97, puzzle: Sensor, turn-off variant 1)
0 (no)

Check this sequence for apparent KD of MS2 coat protein at or above 60 nM: GAUGGAGAGCAGGAUAUCUUGGGUAAGCAUCAUAGAGAAGGGCUCACAUGAGGAUCACCCAUGUGGUCCAAGAA [Usbiridi] (Eterna round: R96, puzzle: Exclusion 6)
0 (no)

Here is the next item to consider.
Check this sequence for apparent KD of MS2 coat protein at or above 60 nM: AUAAAUCAUGUAGGAUAUGUGUGGCGAAGCUAUACAGAAGGACAUGAGGAUCACCCAUGUUCUUCCGUCUGCGUACAGACGGAA [11th something] (Eterna round: R96, puzzle: Exclusion NG 1)
1 (yes)

* * *

Test system: MS2 coat protein
Test: apparent KD of MS2 coat protein; designed switch direction (-1 OFF switch, 1 ON switch): -1; higher = weaker reporter binding
Conditions: input ligand: FMN 200 uM
Listed sequences paired with reported apparent KD of MS2 coat protein
The response must be a number in nM with no trailing unit.

Example sequences with recorded apparent KD of MS2 coat protein:
MS2 coat protein / apparent KD of MS2 coat protein / GAUGGACAUGAGGAUCACCCAUGUAAGGAUAUUGAUUGUGGCUAUAAAUAGUUACGGUCAAGAAGGUACUCGUC [-21.6, -18.6 kcal, A 31%] (Eterna round: R97, puzzle: Exclusion 1) : value?
128

MS2 coat protein / apparent KD of MS2 coat protein / GCAUGUCUUAAGGAUAUGCUAAGGCGUGAGCCAGCAGAAGGUAAGACAUGAGGAUCACCCAUGUUUUCCUAAAA [jl-ex6-4.33 ViennaUCT mod] (Eterna round: R97, puzzle: Exclusion 6) : value?
68.5

Now examine the next entry.
MS2 coat protein / apparent KD of MS2 coat protein / UCGCUCCGUGUAGGAUAUCGCCGUUCUAUUCGGCGAGAAGGACAUGAGGAUCACCCAUGUAUGUUAUUAUCACGCGUGGCGCGC [Design 56] (Eterna round: R96, puzzle: Exclusion NG 1) : value?
18.8
